Tested on: primary polyclonal human Vγ9Vδ2 T cells
Test: Cytokine release assay: TNFα release from γδ T cells
Assay type: cell-based
Details: Homo sapiens, T-cell; prior assays, calibrated cells; read-out: EC50 in prior assays with calibrated cells using a BrHPP-standard composition
METRIC NAME: EC50

Name the recorded EC50 for CC(O)(CBr)CCOP(=O)(O)OP(=O)(O)O (stereo not shown) [BrHPP] .
~15 nM
